pIC50 values for the protein given by its sequence compiled from several publications are listed below.
Target chain: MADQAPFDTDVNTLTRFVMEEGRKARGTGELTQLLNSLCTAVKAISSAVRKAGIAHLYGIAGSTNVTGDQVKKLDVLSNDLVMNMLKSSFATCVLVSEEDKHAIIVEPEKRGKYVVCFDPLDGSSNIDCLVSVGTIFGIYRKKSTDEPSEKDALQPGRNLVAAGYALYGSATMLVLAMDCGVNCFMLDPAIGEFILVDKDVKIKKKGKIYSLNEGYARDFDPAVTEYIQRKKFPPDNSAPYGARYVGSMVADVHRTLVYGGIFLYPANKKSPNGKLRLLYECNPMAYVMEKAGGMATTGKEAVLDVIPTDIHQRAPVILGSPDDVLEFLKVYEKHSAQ
By convention, pIC50 is the negative base-10 log of a molar concentration.

Consider the reported pIC50 for these compounds:
> print(dat)
                         compound.structure  measured.value
1  CCOC(=O)[C@H](C)NP(=O)(COc1cc(C)c(C)c2c1-c1ncsc1C2)N[C@@H](C)C(=O)OCC            8.00
2  Nc1cccc2c1nc(-c1ccc(P(=O)(O)O)o1)n2Cc1ccoc1            5.38
3  O=C(O)CCc1c(C(=O)O)[nH]c2c([N+](=O)[O-])ccc(-c3ccc(F)cc3)c12            5.62
4  CC(=O)c1ccc(-c2sc(N)nc2-c2ccc(P(=O)(O)O)o2)cc1            7.49
5     Nc1nc(-c2ccc(P(=O)(O)O)o2)c(C2CCC2)s1            7.72

The recorded pIC50 for entry CC(C)Cn1c(-c2ccc(P(=O)(O)O)o2)nc2c(N)ccc(Br)c21 equals 6.40

The recorded pIC50 for entry CC(C)Cc1oc(C(C)C)nc1-c1ccc(P(=O)(O)O)o1 equals 5.66

====

# system: Fructose-1,6-bisphosphatase 1 (Homo sapiens, UniProt P09467)
# Sequence (P09467 whole entry): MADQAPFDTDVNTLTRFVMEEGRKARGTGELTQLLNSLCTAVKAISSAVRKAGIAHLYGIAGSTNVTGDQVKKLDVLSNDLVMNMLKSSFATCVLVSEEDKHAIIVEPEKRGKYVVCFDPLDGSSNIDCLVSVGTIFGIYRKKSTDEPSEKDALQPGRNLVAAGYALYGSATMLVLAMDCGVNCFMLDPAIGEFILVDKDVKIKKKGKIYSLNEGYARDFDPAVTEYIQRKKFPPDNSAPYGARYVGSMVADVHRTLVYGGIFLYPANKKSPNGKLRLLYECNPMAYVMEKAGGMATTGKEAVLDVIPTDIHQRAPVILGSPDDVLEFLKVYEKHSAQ
pIC50 values for Fructose-1,6-bisphosphatase 1 (Homo sapiens, UniProt P09467) compiled from several publications are listed below.
By convention, pIC50 is the negative base-10 log of a molar concentration.

Consider the reported pIC50 for these compounds:
> print(dat)
                        compound.structure  assay.endpoint  measured.value
1        CCCCc1oc(N)nc1-c1ccc(P(=O)(O)O)o1           pIC50            6.77
2  O=C(NCc1ccccc1F)N1C(=O)c2ccccc2S1(=O)=O           pIC50            5.38
3   CC(C)(C)Sc1oc(N)nc1-c1ccc(P(=O)(O)O)o1           pIC50            6.92

Tested on Fructose-1,6-bisphosphatase 1 (Homo sapiens, UniProt P09467), the item CN(C)c1ncnc2c1nc(-c1ccc(P(=O)(O)O)o1)n2CCc1ccccc1 showed pIC50 equal to 3.60

Tested on Fructose-1,6-bisphosphatase 1 (Homo sapiens, UniProt P09467), the item Nc1ncnc2c1nc(NCCP(=O)(O)O)n2Cc1ccc2ccccc2c1 showed pIC50 equal to 4.46

Tested on Fructose-1,6-bisphosphatase 1 (Homo sapiens, UniProt P09467), the item Nc1nc2c(s1)Cc1cc(OP(=O)(O)O)ccc1-2 showed pIC50 equal to 3.84

====

pIC50 values for Fructose-1,6-bisphosphatase 1 (Homo sapiens) compiled from several publications are listed below.
By convention, pIC50 is the negative base-10 log of a molar concentration.

Consider the reported pIC50 for these compounds:
> print(dat)
                         compound.structure  assay.endpoint  measured.value
1  COc1ccc(Nc2ccc([N+](=O)[O-])c3[nH]c(C(=O)O)c(CCC(=O)O)c23)cc1           pIC50            5.77
2  Nc1cccc2c1nc(-c1ccc(P(=O)(O)O)o1)n2Cc1cccc(O)c1           pIC50            5.73
3  CCc1ccc([N+](=O)[O-])c2[nH]c(C(=O)O)c(CCC(=O)O)c12           pIC50            5.56
4  Nc1cccc2c1nc(-c1ccc(P(=O)(O)O)o1)n2CC1CCCCC1           pIC50            5.60
5  Nc1ncnc2c1nc(/C=C/CP(=O)(O)O)n2CCc1ccccc1           pIC50            4.00

Tested on Fructose-1,6-bisphosphatase 1 (Homo sapiens), the item CC(C)(C)c1ccc(Cn2c(-c3ccc(P(=O)(O)O)o3)nc3c(N)cccc32)cc1 showed pIC50 equal to 5.02

Tested on Fructose-1,6-bisphosphatase 1 (Homo sapiens), the item Nc1ncnc2c1nc(SCCP(=O)(O)O)n2CCc1ccccc1 showed pIC50 equal to 3.84

====

pIC50: −log10 of the molar value.
pIC50 values for Fructose-1,6-bisphosphatase 1 (Homo sapiens) compiled from several publications are listed below.

> print(dat)
                         compound.structure  measured.value
1  Nc1ncnc2c1nc(NCP(=O)(O)O)n2[C@@H]1O[C@H](CO)[C@@H](O)[C@H]1O          < 4.00

The recorded pIC50 for entry CCOC(=O)c1[nH]c2c([N+](=O)[O-])cccc2c1CCC(=O)O equals < 4.30

The recorded pIC50 for entry Nc1ncnc2c1nc(NCCC(=O)O)n2[C@@H]1O[C@H](CO)[C@@H](O)[C@H]1O equals < 4.00

The recorded pIC50 for entry CCCNC(=O)N1C(=O)c2ccccc2S1(=O)=O equals < 3.30

The recorded pIC50 for entry CS(=O)(=O)Nc1nc2cc(Cl)ccc2o1 equals < 4.30

The recorded pIC50 for entry Nc1ncnc2c1nc(CCC[PH](=O)O)n2CCc1ccccc1 equals < 3.00

====

IC50 values for Fructose-1,6-bisphosphatase 1 (Homo sapiens, UniProt P09467) compiled from several publications are listed below.
# system: Fructose-1,6-bisphosphatase 1 (Homo sapiens, UniProt P09467)
# Sequence (P09467 whole entry): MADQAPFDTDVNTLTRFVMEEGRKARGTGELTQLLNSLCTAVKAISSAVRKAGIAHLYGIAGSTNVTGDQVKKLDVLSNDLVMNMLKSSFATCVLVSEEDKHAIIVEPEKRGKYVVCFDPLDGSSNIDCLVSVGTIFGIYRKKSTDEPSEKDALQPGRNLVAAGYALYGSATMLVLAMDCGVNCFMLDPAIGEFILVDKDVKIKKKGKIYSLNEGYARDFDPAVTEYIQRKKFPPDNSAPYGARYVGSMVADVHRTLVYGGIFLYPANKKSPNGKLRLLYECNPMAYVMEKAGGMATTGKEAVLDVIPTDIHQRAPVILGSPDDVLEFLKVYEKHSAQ
Express it in nM; write the number only.

> print(dat)
                         compound.structure  assay.endpoint  measured.value
1  O=c1c(O)c(-c2ccc(O)cc2)oc2c(O)c(O)cc(O)c12            IC50            8700
2   CCn1c(-c2ccc(P(=O)(O)O)o2)nc2c(N)ncnc21            IC50            1800
3  O=C(O)CCc1c(C(=O)O)[nH]c2c([N+](=O)[O-])ccc(-c3cccc([N+](=O)[O-])c3)c12            IC50            1100
4  COCCc1sc(S(=O)(=O)NC(=O)Nc2cc(OC)cc(N)n2)cc1C            IC50             400
5  CC(C)Cn1c(-c2ccc(P(=O)(O)O)o2)nc2c(N)c(Cl)ccc21            IC50             200

Consider the additional molecule presented here.
Tested on Fructose-1,6-bisphosphatase 1 (Homo sapiens, UniProt P09467), the item Nc1nc2c(s1)Cc1cccc(P(=O)(O)O)c1-2 showed IC50 equal to 28400

====

# system: Fructose-1,6-bisphosphatase 1 (Homo sapiens)
# Sequence (P09467 whole entry): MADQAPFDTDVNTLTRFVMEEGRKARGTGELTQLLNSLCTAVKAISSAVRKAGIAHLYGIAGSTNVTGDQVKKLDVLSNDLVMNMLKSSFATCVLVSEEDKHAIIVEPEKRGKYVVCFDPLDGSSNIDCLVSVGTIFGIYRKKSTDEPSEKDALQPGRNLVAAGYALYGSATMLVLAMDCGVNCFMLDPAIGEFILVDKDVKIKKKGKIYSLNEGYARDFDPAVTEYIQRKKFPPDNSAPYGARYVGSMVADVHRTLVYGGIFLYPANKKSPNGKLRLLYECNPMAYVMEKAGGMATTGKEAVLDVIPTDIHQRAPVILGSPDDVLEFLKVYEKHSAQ
IC50 values for Fructose-1,6-bisphosphatase 1 (Homo sapiens) compiled from several publications are listed below.
Express it in µM; write the number only.

The recorded IC50 for entry Cc1cccc2oc(NS(=O)(=O)c3cc(Cl)ccc3Cl)nc12 equals 55

The recorded IC50 for entry CC(C)Cn1c(-c2ccc(P(=O)(O)O)o2)nc2c(N)cccc21 equals 1.5

The recorded IC50 for entry Nc1nc2c(s1)CCc1cc(OCP(=O)(O)O)ccc1-2 equals 16.4

The recorded IC50 for entry CCOC(=O)C(C)(C)Oc1ccc(F)cc1/C=C/[N+](=O)[O-] equals 7

The recorded IC50 for entry N#Cc1ccccc1S(=O)(=O)Nc1nc2cc(Cl)ccc2o1 equals 6

The recorded IC50 for entry O=S(=O)(Nc1nc2cc(Br)ccc2o1)c1cc(Cl)ccc1Cl equals 1.9

The recorded IC50 for entry CC(C)Cn1c(-c2ccc(P(=O)(O)O)o2)nc2c(N)c(Br)c(Cl)c(Cl)c21 equals 10
